- System: NCl-H460 (human lung carcinoma ATCC HTB-177)
- experimental_details: MTT cytotoxicity assay, H460 cell line
- Format: cell-based
- condition: 24 h treatment, H460 cells, read-out: H460 cell line (Lung cancer) IC50 ± SD
pIC50: −log10 of the molar value.
measurement_label: pIC50

molecule="N.N.[Cl][Pt][Cl] [cisplatin, reference compound]" reading=4.65

---

Parameter: melting point. Scope: all listed entries.
measurement_label: melting point

molecule="CC1=C[C@@]2(C)C(=CC1=O)CC[C@@H]1[C@@H]2CC[C@]2(C)C(=O)CC[C@@H]12 [Compound 5, 2-methylandrosta-1,4-diene-3,17-dione]" reading="198 to 202 °C"
molecule="CC1=C[C@@]2(C)C(=CC1=O)CC[C@@H]1[C@@H]2CC[C@]2(C)C(=O)CC[C@@]12O [Compound 7]" reading="224 to 228 °C"
molecule="CC1=C[C@@]2(C)[C@H](CC1=O)C[C@@H](O)[C@@H]1[C@@H]2CC[C@]2(C)C(=O)CC[C@@H]12 [Compound 8]" reading="250 to 256 °C"
molecule="C[C@@H]1C[C@@]2(C)[C@H](CC1=O)C[C@@H](O)[C@@H]1[C@@H]2CC[C@]2(C)C(=O)CC[C@@H]12 [Compound 3]" reading="230 to 234 °C"
molecule="CC1=C[C@@]2(C)C(=CC1=O)CC[C@@H]1[C@@H]2[C@H](O)C[C@]2(C)C(=O)CC[C@@H]12 [Compound 6]" reading="230 to 234 °C"
molecule="C[C@@H]1C[C@@]2(C)[C@@H](CC[C@@H]3[C@@H]2CC[C@]2(C)[C@@H](O)CC[C@@H]32)C[C@@H]1O [Compound 4, 2α-methyl-3α,17β-dihydroxy-5α-androstane]" reading="242 to 245 °C"
